Origin of measurements: paper PMC12748989

Listed next: entries and their corresponding Average (percentage cell inhibition), Mastoparan PBMC.
test system: PBMC; settings: 12.5 µM
Please reply with the bare figure in % and do not write the unit itself.

Look over these answered cases.
>  <inputSmiles>
CC[C@H](C)[C@H](N)C(=O)N[C@@H](CC(N)=O)C(=O)N[C@@H](CC(C)C)C(=O)N[C@@H](CCCCN)C(=O)N[C@@H](C)C(=O)N[C@@H](CC(C)C)C(=O)N[C@@H](C)C(=O)N[C@@H](C)C(=O)N[C@@H](CC(C)C)C(=O)N[C@H](C(=O)N[C@@H](CCCCN)C(=O)N[C@@H](CCCCN)C(=O)N[C@H](C(=O)N[C@@H](CC(C)C)C(N)=O)[C@@H](C)CC)[C@@H](C)CC

>  <testValue>
25.836

$$$$
>  <inputSmiles>
CC[C@H](C)[C@H](N)C(=O)N[C@@H](CC(N)=O)C(=O)N[C@@H](CC(C)C)C(=O)N[C@@H](CCCCN)C(=O)N[C@@H](C)C(=O)N[C@@H](CC(C)C)C(=O)N[C@@H](C)C(=O)N[C@@H](C)C(=O)N[C@@H](CC(C)C)C(=O)N[C@@H](C)C(=O)N[C@@H](CCCCN)C(=O)N[C@@H](CCCCN)C(=O)N[C@H](C(=O)N[C@@H](CC(N)=O)C(N)=O)[C@@H](C)CC

>  <testValue>
9.15

$$$$

Query string: # query: Average (percentage cell inhibition), Mastoparan PBMC of entry `CC[C@H](C)[C@H](N)C(=O)N[C@@H](CC(N)=O)C(=O)N[C@@H](CC(C)C)C(=O)N[C@@H](CCCCN)C(=O)N[C@@H](C)C(=O)N[C@@H](Cc1c[nH]c2ccccc12)C(=O)N[C@@H](C)C(=O)N[C@@H](C)C(=O)N[C@@H](CC(C)C)C(=O)N[C@@H](C)C(=O)N[C@@H](CCCCN)C(=O)N[C@@H](CCCCN)C(=O)N[C@H](C(=O)N[C@@H](CC(C)C)C(N)=O)[C@@H](C)CC`
Result string: 18.297

---

Please consider the recorded Average (percentage cell inhibition), Dmastoparan MDA-MB231 12.5uM for MDA-MB-231 cells in what follows.
Just the number in %, nothing appended.

>  <inputSmiles>
CC[C@H](C)[C@H](NC(=O)[C@H](CCCCN)NC(=O)[C@H](CCCCN)NC(=O)[C@H](C)NC(=O)[C@H](CC(C)C)NC(=O)[C@H](C)NC(=O)[C@H](C)NC(=O)[C@H](CC(C)C)NC(=O)[C@H](C)NC(=O)[C@H](CCCCN)NC(=O)[C@H](CC(C)C)NC(=O)[C@H](CC(N)=O)NC(=O)[C@@H](N)CCCNC(=N)N)C(=O)N[C@@H](CC(C)C)C(N)=O

>  <unitsSymbol>
%

>  <testValue>
31.3783

$$$$

Query string: Which Average (percentage cell inhibition), Dmastoparan MDA-MB231 12.5uM value belongs to `CC[C@H](C)[C@H](N)C(=O)N[C@@H](CC(N)=O)C(=O)N[C@@H](CC(C)C)C(=O)N[C@@H](CCCCN)C(=O)N[C@@H](C)C(=O)N[C@@H](CC(C)C)C(=O)N[C@@H](Cc1c[nH]cn1)C(=O)N[C@@H](C)C(=O)N[C@@H](CC(C)C)C(=O)N[C@@H](C)C(=O)N[C@@H](CCCCN)C(=O)N[C@@H](CCCCN)C(=O)N[C@H](C(=O)N[C@@H](CC(C)C)C(N)=O)[C@@H](C)CC` ?
Result string: 37.3401

Query string: # lookup: Average (percentage cell inhibition), Dmastoparan MDA-MB231 12.5uM of `CC[C@H](C)[C@H](N)C(=O)N[C@@H](CC(N)=O)C(=O)N[C@@H](CC(C)C)C(=O)N[C@@H](CCCCN)C(=O)N[C@@H](C)C(=O)N[C@@H](CC(C)C)C(=O)N[C@@H](C)C(=O)N[C@@H](C)C(=O)N[C@@H](CC(C)C)C(=O)N[C@@H](C)C(=O)N[C@@H](CCCCN)C(=O)N[C@H](C(=O)N[C@H](C(=O)N[C@@H](CC(C)C)C(N)=O)[C@@H](C)CC)C(C)C`
Result string: 51.0657
